The following variants are listed with their measured protein stability index values.
B1: ZBED3 (parent)
chain: QARLRDVSRREGALGWAPAAPPPL

# Variants of: B1
# procedureSummary: protein stability index of a GFP-peptide fusion (GPS, HEK-293T) (PSI 1-6); higher = more stable;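 note: lentivirally expressed fusions sorted by FACS into six bins by GFP to DsRed ratio, PSI derived from sequencing read proportions per bin multiplied by bin number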
# conditionDescription: c terminus: a fixed tail appended
// no unit, no text: just the number

Can you share its protein stability index? I mean this variant: P22D 3.81
